# Test system: Vero cells
# Assay Setup: read-out: VERO IC50
Measured Quantity: pIC50
Convention used: pIC50 is expressed as -log10 of the molar concentration.

Worked cases, answers included:
>>> quantitative_result("NC(=O)c1sc(-c2ccncc2)cc1OCCc1ccccc1")
5.25
>>> quantitative_result("c1ccc(CCOc2csc(N3CCOCC3)c2)cc1")
4.21

Measured pIC50 of `CCNC(=O)c1sc(N2CCOCC2)cc1OCCc1ccccc1` : 4.25

Measured pIC50 of `CNC(=O)c1sc(N2CCOCC2)cc1OCCc1ccccc1` : 4.14

Measured pIC50 of `O=C(NO)c1sc(N2CCOCC2)cc1OCCc1ccccc1` : 4.24

Measured pIC50 of `O=C(NC1CCC1)c1sc(N2CCOCC2)cc1OCCc1ccccc1` : 4.62

Measured pIC50 of `CC(=O)c1sc(N2CCOCC2)cc1OCCc1ccccc1` : 4.08

Measured pIC50 of CNC(=O)c1sc(N2CC3CC2CO3)cc1OCCc1ccccc1 (stereo not shown) : 4.16

Measured pIC50 of `NC(=O)c1sc(N2CCOCC2)cc1OCCc1ccc(OC(F)(F)F)cc1` : 4.43

Measured pIC50 of `NC(=O)c1sc(N2CCOCC2)cc1OCCc1ccccc1F` : 4.08
